Every entry's value here was drawn from patent US11242337B2.

Biological target: NHE3 (Homo sapiens)
Construct: expressed in transfected cells
Assay: Cell-based assay of NHE-3 activity (pre-incubation inhibition), human
Details: human Preincubation, 0-30 μM test compound

{"SMILES_REPR": "CC1(C)O[C@H]2[C@@H](OC(C)(C)O[C@H]2C(=O)NCc2cn(CCCCNS(=O)(=O)c3ccc(O[C@H]4c5cc(Cl)cc(Cl)c5C[C@@H]4N4CCC[C@@H](N)C4)cc3)nn2)[C@@H](C(=O)NCc2cn(CCCCNS(=O)(=O)c3ccc(O[C@H]4c5cc(Cl)cc(Cl)c5C[C@@H]4N4CCC[C@@H](N)C4)cc3)nn2)O1", "EXPERIMENTAL_TARGET": "NHE3 (Homo sapiens)", "pIC50": "C (NHE3 pIC50 > 7)"}
{"SMILES_REPR": "Cc1cc(S(=O)(=O)NCCCCCCCCNC(=O)NCCCCNC(=O)NCCCCCCCCNS(=O)(=O)c2ccc(O[C@H]3c4cc(Cl)cc(Cl)c4C[C@@H]3N3CCC[C@@H](N)C3)c(C)c2)ccc1O[C@H]1c2cc(Cl)cc(Cl)c2C[C@@H]1N1CCC[C@@H](N)C1", "EXPERIMENTAL_TARGET": "NHE3 (Homo sapiens)", "pIC50": "C (NHE3 pIC50 > 7)"}

---

Biological target: NHE3 (Homo sapiens, UniProt P48764)
Construct: expressed in transfected cells
Sequence (P48764 26-834): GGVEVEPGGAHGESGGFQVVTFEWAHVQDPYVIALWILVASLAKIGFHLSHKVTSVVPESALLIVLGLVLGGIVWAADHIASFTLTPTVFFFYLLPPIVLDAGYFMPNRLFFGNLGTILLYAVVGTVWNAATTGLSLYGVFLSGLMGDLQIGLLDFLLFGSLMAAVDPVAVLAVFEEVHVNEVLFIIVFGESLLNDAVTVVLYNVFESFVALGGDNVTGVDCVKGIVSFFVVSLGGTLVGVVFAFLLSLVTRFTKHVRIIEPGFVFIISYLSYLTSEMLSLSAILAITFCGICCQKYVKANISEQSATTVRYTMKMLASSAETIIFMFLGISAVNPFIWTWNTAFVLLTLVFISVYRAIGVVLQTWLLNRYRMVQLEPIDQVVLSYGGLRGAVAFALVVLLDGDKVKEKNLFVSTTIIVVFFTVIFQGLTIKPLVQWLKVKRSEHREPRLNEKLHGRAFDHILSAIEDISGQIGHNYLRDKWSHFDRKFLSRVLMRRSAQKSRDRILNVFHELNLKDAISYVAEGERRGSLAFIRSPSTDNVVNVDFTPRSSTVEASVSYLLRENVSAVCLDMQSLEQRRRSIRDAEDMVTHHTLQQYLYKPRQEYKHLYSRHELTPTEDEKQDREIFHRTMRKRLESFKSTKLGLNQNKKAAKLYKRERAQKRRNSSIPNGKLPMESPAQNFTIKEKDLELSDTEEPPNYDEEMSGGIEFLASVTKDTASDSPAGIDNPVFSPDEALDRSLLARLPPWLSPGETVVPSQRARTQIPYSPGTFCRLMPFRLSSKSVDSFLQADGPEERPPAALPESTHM
Sequence (Q99653 2-195 partner limits assumed): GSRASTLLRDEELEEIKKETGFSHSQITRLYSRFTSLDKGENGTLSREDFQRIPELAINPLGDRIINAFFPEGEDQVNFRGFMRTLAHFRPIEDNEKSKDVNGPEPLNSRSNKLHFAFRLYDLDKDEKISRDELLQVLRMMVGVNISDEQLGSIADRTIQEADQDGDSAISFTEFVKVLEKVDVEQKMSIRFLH
Experiment: Cell-based assay of NHE-3 activity (persistent inhibition), human
Details: human Persistence, 60 min incubation then washout
QUANTITY_NAME: % inhibition

Some entries whose results are on file:
{"MOLECULE": "CN(C)[C@H]1Cc2c(Cl)cc(Cl)cc2[C@@H]1Oc1ccc(S(=O)(=O)NCCCCCCCCNC(=O)NCCCCNC(=O)NCCCCCCCCNS(=O)(=O)c2ccc(O[C@H]3c4cc(Cl)cc(Cl)c4C[C@@H]3N(C)C)cc2)cc1 [Example 64]", "EXPERIMENTAL_TARGET": "NHE3 (Homo sapiens, UniProt P48764)", "% inhibition": "A (NHE3 < 40%)"}
{"MOLECULE": "N[C@@H]1CCCN([C@H]2Cc3c(Cl)cc(Cl)cc3[C@@H]2Oc2ccc(S(=O)(=O)N3CC[C@@H](OCCOCCNC(=O)NCCCCNC(=O)NCCOCCO[C@@H]4CCN(S(=O)(=O)c5ccc(O[C@H]6c7cc(Cl)cc(Cl)c7C[C@@H]6N6CCC[C@@H](N)C6)cc5)C4)C3)cc2)C1 [Example 93]", "EXPERIMENTAL_TARGET": "NHE3 (Homo sapiens, UniProt P48764)", "% inhibition": "C (>70%)"}
{"MOLECULE": "Cc1cc(S(=O)(=O)NCCOCCOCCNC(=O)NCCCCNC(=O)NCCOCCOCCNS(=O)(=O)c2ccc(O[C@H]3c4cc(Cl)cc(OC(F)(F)F)c4C[C@@H]3N(C)C)c(C)c2)ccc1O[C@H]1c2cc(Cl)cc(OC(F)(F)F)c2C[C@@H]1N(C)C [Example 20]", "EXPERIMENTAL_TARGET": "NHE3 (Homo sapiens, UniProt P48764)", "% inhibition": "A (NHE3 < 40%)"}
{"MOLECULE": "N#Cc1cc(Cl)cc2c1C[C@H](N1CCC[C@@H](N)C1)[C@H]2Oc1ccc(S(=O)(=O)NCCOCCOCCNC(=O)NCCCCNC(=O)NCCOCCOCCNS(=O)(=O)c2ccc(O[C@H]3c4cc(Cl)cc(C#N)c4C[C@@H]3N3CCC[C@@H](N)C3)c(F)c2)cc1F [Example 38]", "EXPERIMENTAL_TARGET": "NHE3 (Homo sapiens, UniProt P48764)", "% inhibition": "A (NHE3 < 40%)"}
{"MOLECULE": "N#Cc1cc(Cl)cc2c1C[C@H](N1C[C@@H]3C[C@H]1CN3)[C@H]2Oc1ccc(S(=O)(=O)N[C@@H]2CCN(CCOCCNC(=O)NCCCCNC(=O)NCCOCCN3CC[C@@H](NS(=O)(=O)c4ccc(O[C@H]5c6cc(Cl)cc(C#N)c6C[C@@H]5N5C[C@@H]6C[C@H]5CN6)cc4)C3)C2)cc1 [Example 131, bis(trifluoroacetic acid)]", "EXPERIMENTAL_TARGET": "NHE3 (Homo sapiens, UniProt P48764)", "% inhibition": "C (>70%)"}

Okay, now this molecule:
[ask] Give the reported % inhibition for CN(C)[C@@H]1CCCN([C@H]2Cc3c(Cl)cc(Cl)cc3[C@@H]2Oc2ccc(S(=O)(=O)NCCOCCOCCNC(=O)NCCCCNC(=O)NCCOCCOCCNS(=O)(=O)c3ccc(O[C@H]4c5cc(Cl)cc(Cl)c5C[C@@H]4N4CCC[C@@H](N(C)C)C4)c(F)c3)cc2F)C1 [Example 27] (system: NHE3 (Homo sapiens, UniProt P48764)).
[reply] C (>70%)

---

Biological target: NHE3 (Homo sapiens, UniProt P48764)
Construct: expressed in transfected cells
Assay: Cell-based assay of NHE-3 activity (pre-incubation inhibition), human
Conditions: human Preincubation
Counter-ions that a name gives are not always drawn.
QUANTITY_NAME: % inhibition

{"COMPOUND": "CN(C)[C@H]1Cc2c(Cl)cc(Cl)cc2[C@@H]1Oc1c(F)cc(S(=O)(=O)NCCOCCOCCNC(=O)NCCCCNC(=O)NCCOCCOCCNS(=O)(=O)c2cc(F)c(O[C@H]3c4cc(Cl)cc(Cl)c4C[C@@H]3N(C)C)c(F)c2)cc1F [Example 86]", "OBSERVED_VALUE": "C (>70%)"}
{"COMPOUND": "Cc1cc(S(=O)(=O)NCCOCCOCCNC(=O)NCCCCNC(=O)NCCOCCOCCNS(=O)(=O)c2cc(C)c(O[C@H]3c4cc(Cl)cc(Cl)c4C[C@@H]3N3CCC[C@@H](N)C3)c(C)c2)cc(C)c1O[C@H]1c2cc(Cl)cc(Cl)c2C[C@@H]1N1CCC[C@@H](N)C1 [Example 79, hydrochloride]", "OBSERVED_VALUE": "C (>70%)"}
{"COMPOUND": "N[C@@H]1CCCN([C@H]2Cc3c(Cl)cc(Cl)cc3[C@@H]2Oc2ccc(S(=O)(=O)NCCCCCCCCNC(=O)NCCCCNC(=O)NCCCCCCCCNS(=O)(=O)c3ccc(O[C@H]4c5cc(Cl)cc(Cl)c5C[C@@H]4N4CCC[C@@H](N)C4)cc3)cc2)C1 [Example 62]", "OBSERVED_VALUE": "C (>70%)"}

---

Target: NHE3 (Homo sapiens)
Construct: expressed in transfected cells
Assay: Cell-based assay of NHE-3 activity (pre-incubation inhibition), human
Details: human Preincubation, 0-30 μM test compound
Procedure: Rat and human NHE-3-mediated Na^+-dependent H^+ antiport was measured using a modification of the pH sensitive dye method originally reported by Paradiso (Proc. Natl. Acad. Sci. USA. (1984) 81(23): 7436-7440). […] Changes in intracellular pH were monitored using a FLIPR Tetra® (Molecular Devices, Sunnyvale, Calif.) by excitation at λex 439 to 505 nm, and measuring BCECF fluorescence at λem 538 nm. […]
IC50 values by entry

Some entries whose results are on file:
{"COMPOUND": "Cc1cc(S(=O)(=O)N2CC[C@H](COc3ccnc(CNC(=O)NCCCCNC(=O)NCc4cc(OC[C@H]5CCN(S(=O)(=O)c6ccc(O[C@H]7c8cc(Cl)cc(Cl)c8C[C@@H]7N(C)C)c(C)c6)C5)ccn4)c3)C2)ccc1O[C@H]1c2cc(Cl)cc(Cl)c2C[C@@H]1N(C)C [Example 48]", "EXPERIMENTAL_TARGET": "NHE3 (Homo sapiens)", "IC50": "100 to 1000 nM"}
{"COMPOUND": "C[C@H]1CCCCN1[C@H]1Cc2c(Cl)cc(Cl)cc2[C@@H]1Oc1ccc(S(=O)(=O)NCCOCCOCCNC(=O)NCCCCNC(=O)NCCOCCOCCNS(=O)(=O)c2ccc(O[C@H]3c4cc(Cl)cc(Cl)c4C[C@@H]3N3CCCC[C@@H]3C)cc2)cc1 [Example 67]", "EXPERIMENTAL_TARGET": "NHE3 (Homo sapiens)", "IC50": "100 to 1000 nM"}
{"COMPOUND": "Cc1cc(S(=O)(=O)N[C@H]2CCN(CCOCCNC(=O)NCCCCNC(=O)NCCOCCN3CC[C@H](NS(=O)(=O)c4ccc(O[C@H]5c6cc(Cl)cc(C#N)c6C[C@@H]5N(C)C)c(C)c4)C3)C2)ccc1O[C@H]1c2cc(Cl)cc(C#N)c2C[C@@H]1N(C)C [Example 54]", "EXPERIMENTAL_TARGET": "NHE3 (Homo sapiens)", "IC50": "< 100 nM"}

[ask] Would you kindly share the measured IC50 for N[C@@H]1CCCN([C@H]2Cc3c(Cl)cc(Cl)cc3[C@@H]2Oc2ccc(S(=O)(=O)N3CC[C@@H](OCCOCCNC(=O)NCCCCNC(=O)NCCOCCO[C@@H]4CCN(S(=O)(=O)c5ccc(O[C@H]6c7cc(Cl)cc(Cl)c7C[C@@H]6N6CCC[C@@H](N)C6)cc5)C4)C3)cc2)C1 [Example 93] ?
[reply] < 100 nM
